biological target: human Fatty Acid Synthase (Homo sapiens); construct: made in house; assay: Human FAS enzyme assay (decrease in NADPH fluorescence); type: biochemical; conditions: % inhibition at a concentration of 100 μmolar
Sequence (P49327 whole entry): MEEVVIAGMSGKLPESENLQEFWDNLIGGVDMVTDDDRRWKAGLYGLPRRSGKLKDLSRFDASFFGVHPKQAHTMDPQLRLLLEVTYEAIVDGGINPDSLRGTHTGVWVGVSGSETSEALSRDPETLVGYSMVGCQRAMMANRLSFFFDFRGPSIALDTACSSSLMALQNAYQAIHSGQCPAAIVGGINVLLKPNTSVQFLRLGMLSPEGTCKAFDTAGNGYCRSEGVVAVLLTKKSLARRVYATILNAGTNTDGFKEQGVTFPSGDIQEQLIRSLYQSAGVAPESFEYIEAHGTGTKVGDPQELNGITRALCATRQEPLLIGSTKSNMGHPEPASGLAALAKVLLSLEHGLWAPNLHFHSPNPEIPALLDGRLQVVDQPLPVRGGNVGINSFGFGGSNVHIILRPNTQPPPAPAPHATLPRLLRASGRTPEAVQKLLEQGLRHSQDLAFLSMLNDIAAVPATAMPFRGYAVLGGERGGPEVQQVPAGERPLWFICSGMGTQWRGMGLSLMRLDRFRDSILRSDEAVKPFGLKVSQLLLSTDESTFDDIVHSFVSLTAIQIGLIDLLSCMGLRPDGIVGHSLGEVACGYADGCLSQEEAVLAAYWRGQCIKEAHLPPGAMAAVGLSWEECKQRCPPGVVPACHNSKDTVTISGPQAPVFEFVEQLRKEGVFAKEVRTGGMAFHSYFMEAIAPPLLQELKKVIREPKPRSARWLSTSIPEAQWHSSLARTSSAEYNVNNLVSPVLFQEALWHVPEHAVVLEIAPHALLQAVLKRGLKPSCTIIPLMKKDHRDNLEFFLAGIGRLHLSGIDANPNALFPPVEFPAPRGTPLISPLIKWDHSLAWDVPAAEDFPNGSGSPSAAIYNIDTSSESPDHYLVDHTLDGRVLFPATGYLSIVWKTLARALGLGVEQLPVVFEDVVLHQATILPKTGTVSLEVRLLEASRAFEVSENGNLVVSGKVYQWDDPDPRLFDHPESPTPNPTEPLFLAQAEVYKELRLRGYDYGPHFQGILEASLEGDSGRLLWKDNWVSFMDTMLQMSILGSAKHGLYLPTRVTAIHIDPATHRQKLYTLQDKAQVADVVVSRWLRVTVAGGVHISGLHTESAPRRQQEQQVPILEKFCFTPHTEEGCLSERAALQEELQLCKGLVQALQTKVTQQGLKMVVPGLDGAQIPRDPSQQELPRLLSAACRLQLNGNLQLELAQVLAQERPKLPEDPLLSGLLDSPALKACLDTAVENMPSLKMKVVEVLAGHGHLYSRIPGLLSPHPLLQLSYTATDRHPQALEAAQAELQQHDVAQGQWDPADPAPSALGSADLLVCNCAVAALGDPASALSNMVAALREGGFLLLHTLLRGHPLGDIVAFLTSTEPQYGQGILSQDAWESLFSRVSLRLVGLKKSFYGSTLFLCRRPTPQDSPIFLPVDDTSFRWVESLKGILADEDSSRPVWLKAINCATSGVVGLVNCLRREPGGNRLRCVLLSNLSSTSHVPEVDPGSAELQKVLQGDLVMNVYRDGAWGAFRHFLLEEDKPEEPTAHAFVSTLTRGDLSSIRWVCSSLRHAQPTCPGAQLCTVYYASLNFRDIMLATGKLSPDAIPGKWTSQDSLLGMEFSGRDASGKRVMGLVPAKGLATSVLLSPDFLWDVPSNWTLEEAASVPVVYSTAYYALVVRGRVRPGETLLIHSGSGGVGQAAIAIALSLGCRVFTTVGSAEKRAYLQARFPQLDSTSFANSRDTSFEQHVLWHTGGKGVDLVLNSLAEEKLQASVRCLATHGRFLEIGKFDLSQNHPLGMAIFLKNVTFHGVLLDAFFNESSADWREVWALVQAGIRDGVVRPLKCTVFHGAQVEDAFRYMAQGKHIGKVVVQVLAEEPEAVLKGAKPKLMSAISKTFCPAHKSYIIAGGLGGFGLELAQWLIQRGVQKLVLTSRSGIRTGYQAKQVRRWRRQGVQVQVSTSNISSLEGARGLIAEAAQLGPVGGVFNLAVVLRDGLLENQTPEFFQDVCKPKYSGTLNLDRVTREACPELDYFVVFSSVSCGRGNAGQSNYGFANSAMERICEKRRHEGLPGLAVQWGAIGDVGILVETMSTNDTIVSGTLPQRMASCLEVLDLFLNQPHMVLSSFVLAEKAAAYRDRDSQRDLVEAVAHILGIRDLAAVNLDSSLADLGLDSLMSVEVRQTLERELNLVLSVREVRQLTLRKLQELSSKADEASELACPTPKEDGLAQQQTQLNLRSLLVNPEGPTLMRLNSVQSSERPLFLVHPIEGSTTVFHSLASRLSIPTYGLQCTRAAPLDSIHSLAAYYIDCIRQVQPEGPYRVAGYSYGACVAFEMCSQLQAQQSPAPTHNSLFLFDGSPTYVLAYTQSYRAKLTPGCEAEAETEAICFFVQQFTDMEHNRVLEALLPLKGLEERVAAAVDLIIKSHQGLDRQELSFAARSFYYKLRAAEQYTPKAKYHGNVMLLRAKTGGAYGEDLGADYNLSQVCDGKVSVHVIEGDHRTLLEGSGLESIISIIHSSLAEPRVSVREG
Please respond with reported inhibition at 100 µM for every item in the list.
Answers are plain numbers, in %.

Structure string: Cc1ccc(NC(=O)N2CCOCC2)cc1C(=O)N1CCC(c2ccc(C#N)cc2)CC1
Experimental target: human Fatty Acid Synthase (Homo sapiens)
inhibition at 100 µM [%]: 83.1
//
Structure string: N#Cc1ccc(C2CCN(C(=O)c3cccc(NC(=O)NCc4ccccc4)c3)CC2)cc1
Experimental target: human Fatty Acid Synthase (Homo sapiens)
inhibition at 100 µM [%]: 90.1
//
Structure string: Cc1ccc(C(=O)N2CCC(c3ccc(C#N)cc3)CC2)cc1NC(=O)NCCC(=O)NCCO
Experimental target: human Fatty Acid Synthase (Homo sapiens)
inhibition at 100 µM [%]: 94.3
//
Structure string: Cc1ccc(C(=O)N2CCC(c3ccc(C#N)cc3)CC2)cc1NC(=O)NCCc1ccccn1
Experimental target: human Fatty Acid Synthase (Homo sapiens)
inhibition at 100 µM [%]: 95.3
//
Structure string: Cc1ccc(C(=O)N2CCC(c3ccc(C#N)cc3)CC2)cc1NC(=O)NC1CNC1
Experimental target: human Fatty Acid Synthase (Homo sapiens)
inhibition at 100 µM [%]: 84.3

Give measured inhibition at 100 µM for every item shown.
1. Cc1ccc(C(=O)N2CCC(c3ccc(C#N)cc3)CC2)cc1NC(=O)NCCc1ccncc1
2. CC(=O)NCCCNC(=O)Nc1cc(C(=O)N2CCC(c3ccc(C#N)cc3)CC2)ccc1C
3. Cc1cc(CNC(=O)Nc2cc(C(=O)N3CCC(c4ccc(C#N)cc4)CC3)ccc2C)on1

RESULT:
1. 101
2. 87
3. 94.3

====

target: human Fatty Acid Synthase (Homo sapiens); construct: made in house; experiment: Human FAS enzyme assay (decrease in NADPH fluorescence); assay type: biochemical; conditions: % inhibition at a concentration of 100 μmolar
Outcome measure: inhibition at 100 µM (%)
Give bare numbers, in %.

Compound: COc1ccc(NCCNC(=O)Nc2cc(C(=O)N3CCC(c4ccc(C#N)cc4)CC3)ccc2C)cc1 [Example 101]
Reported: 90.7
//
Compound: Cc1ccc(NC(=O)N[C@H]2CC[C@@H](O)CC2)cc1C(=O)N1CCC(c2ccc(C#N)cc2)CC1 [Example 48]
Reported: 93.7

Quick batch: inhibition at 100 µM for everything below.
1. Cc1ccc(C(=O)N2CCC(c3ccc(C#N)cc3)CC2)cc1NC(=O)N[C@H](C)c1ccccc1 [Example 106]
2. Cc1ccc(C(=O)N2CCC(c3ccc(C#N)cc3)CC2)cc1NC(=O)NC1CCOC(C)(C)C1 (stereo not shown) [Example 77]

RESULT:
1. 90.3
2. 89.6

====

target: human Fatty Acid Synthase (Homo sapiens); construct: made in house; experiment: Human FAS enzyme assay (decrease in NADPH fluorescence); format: biochemical; conditions: % inhibition at a concentration of 100 μmolar
Outcome measure: inhibition at 100 µM
Answer format: number, then unit.

Compound: Cc1ccc(C(=O)N2CCC(c3ccc(F)cc3)CC2)cc1NC(=O)NC1CN(C(=O)OC(C)(C)C)C1
Outcome measure: inhibition at 100 µM
Reported: 81.3%

List inhibition at 100 µM for every entry below, keeping the order given.
1. C[S+]([O-])c1ccc(C(=O)N2CCC(c3ccc(C#N)cc3)CC2)cc1NC(=O)NCc1ccccc1 (stereo not shown)
2. Cc1ccc(C(=O)N2CCC(c3ccc(C#N)cc3)CC2)cc1NC(=O)NC1CONC1=O (stereo not shown)
3. Cc1ccc(C(=O)N2CCC(c3ccc(C#N)cc3)CC2)cc1NC(=O)NCCc1cccc(F)c1
4. CC(C)NC(=O)Nc1cc(C(=O)N2CCC(c3ccc(C#N)cc3)CC2)ccc1[S+](C)[O-] (stereo not shown)
5. Cc1ccc(C(=O)N2CCC(c3ccc(C#N)cc3)CC2)cc1NC(=O)NCc1ccoc1

RESULT:
["72.9%", "73.6%", "102%", "67.4%", "93.1%"]
